The reported measurements were obtained from patent US12208079B2.

- Test System: σ1 (h) (Homo sapiens)
- Test Name: σ1 (h) receptor binding assay, [3H](+)pentazocine
- Condition Parameters: 1.0E−06 M, 2nd individual value; hydrochloride
Measured Metric: % of Control Specific Binding, 2nd (%)

| Compound | Value Units | Result |
| --- | --- | --- |
| CN(C)CC1COC(c2ccccc2)(c2ccccc2)C1.Cl (single isomer, unassigned; (-)) [(−) A1-41] | % | 33.3 |
| CN(C)CC1COC(c2ccccc2)(c2ccccc2)C1.Cl (single isomer, unassigned; (+)) [(+) A1-41] | % | 32.9 |
| CN(C)CC1CCOC1(c1ccccc1)c1ccccc1.Cl (single isomer, unassigned; (-)) [(−) A2-73] | % | 50.0 |
| CN(C)CC1CCOC1(c1ccccc1)c1ccccc1.Cl (single isomer, unassigned; (+)) [(+) A2-73] | % | 81.1 |

* * *

- Test System: σ1 (h) (Homo sapiens)
- Test Name: σ1 (h) receptor binding assay, [3H](+)pentazocine
- Condition Parameters: test concentration 1.0E−06 M; hydrochloride
Measured Metric: % Inhibition of Control Specific Binding (%)

| Compound | Value Units | Result |
| --- | --- | --- |
| CN(C)CC1COC(c2ccccc2)(c2ccccc2)C1.Cl (single isomer, unassigned; (-)) [(−) A1-41] | % | 65 |
| CN(C)CC1CCOC1(c1ccccc1)c1ccccc1.Cl (single isomer, unassigned; (+)) [(+) A2-73] | % | 19 |
| CN(C)CC1CCOC1(c1ccccc1)c1ccccc1.Cl (single isomer, unassigned; (-)) [(−) A2-73] | % | 50 |
| CN(C)CC1COC(c2ccccc2)(c2ccccc2)C1.Cl (single isomer, unassigned; (+)) [(+) A1-41] | % | 66 |

* * *

- Test System: σ1 (h) (Homo sapiens, UniProt Q99720)
- Sequence (Q99720 whole entry): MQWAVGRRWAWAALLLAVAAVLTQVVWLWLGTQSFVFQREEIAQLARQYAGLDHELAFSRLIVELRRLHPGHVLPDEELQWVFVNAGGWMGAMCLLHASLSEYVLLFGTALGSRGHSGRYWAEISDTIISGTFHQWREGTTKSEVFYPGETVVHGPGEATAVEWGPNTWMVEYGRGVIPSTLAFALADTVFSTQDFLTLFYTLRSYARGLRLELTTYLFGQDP
- Test Name: σ1 (h) receptor binding assay, [3H](+)pentazocine
- Condition Parameters: 1.0E−06 M, 1st individual value; hydrochloride
Listed here: items and their measured % of Control Specific Binding, 1st.

| Compound | Test System | % of Control Specific Binding, 1st |
| --- | --- | --- |
| CN(C)CC1COC(c2ccccc2)(c2ccccc2)C1.Cl (single isomer, unassigned; (-)) [(−) A1-41] | σ1 (h) (Homo sapiens, UniProt Q99720) | 35.7% |
| CN(C)CC1CCOC1(c1ccccc1)c1ccccc1.Cl (single isomer, unassigned; (+)) [(+) A2-73] | σ1 (h) (Homo sapiens, UniProt Q99720) | 81.5% |
| CN(C)CC1COC(c2ccccc2)(c2ccccc2)C1.Cl (single isomer, unassigned; (+)) [(+) A1-41] | σ1 (h) (Homo sapiens, UniProt Q99720) | 35.0% |
| CN(C)CC1CCOC1(c1ccccc1)c1ccccc1.Cl (single isomer, unassigned; (-)) [(−) A2-73] | σ1 (h) (Homo sapiens, UniProt Q99720) | 50.7% |

* * *

The compounds listed here are annotated with their % of Control Specific Binding, Mean.
- Test System: σ1 (h) (Homo sapiens)
- Test Name: σ1 (h) receptor binding assay, [3H](+)pentazocine
- Condition Parameters: 1.0E−06 M, mean; hydrochloride
Measured Metric: % of Control Specific Binding, Mean (%)

| Compound | Measured Metric | Value Units | Result |
| --- | --- | --- | --- |
| CN(C)CC1COC(c2ccccc2)(c2ccccc2)C1.Cl (single isomer, unassigned; (-)) [(−) A1-41] | % of Control Specific Binding, Mean | % | 34.5 |
| CN(C)CC1COC(c2ccccc2)(c2ccccc2)C1.Cl (single isomer, unassigned; (+)) [(+) A1-41] | % of Control Specific Binding, Mean | % | 34.0 |
| CN(C)CC1CCOC1(c1ccccc1)c1ccccc1.Cl (single isomer, unassigned; (-)) [(−) A2-73] | % of Control Specific Binding, Mean | % | 50.4 |
| CN(C)CC1CCOC1(c1ccccc1)c1ccccc1.Cl (single isomer, unassigned; (+)) [(+) A2-73] | % of Control Specific Binding, Mean | % | 81.3 |

* * *

- Test System: σ2 (Rattus norvegicus, UniProt Q5U3Y7)
- Test Name: σ2 receptor binding assay, [3H]DTG (+ 300 nM (+)pentazocine)
- Condition Parameters: 1.0E−06 M, 1st individual value; hydrochloride
% of Control Specific Binding, 1st by entry:

| Molecule | % of Control Specific Binding, 1st |
| --- | --- |
| CN(C)CC1CCOC1(c1ccccc1)c1ccccc1.Cl (single isomer, unassigned; (+)) [(+) A2-73] | 88.9% |
| CN(C)CC1CCOC1(c1ccccc1)c1ccccc1.Cl (single isomer, unassigned; (-)) [(−) A2-73] | 126.1% |
| CN(C)CC1COC(c2ccccc2)(c2ccccc2)C1.Cl (single isomer, unassigned; (+)) [(+) A1-41] | 60.0% |
| CN(C)CC1COC(c2ccccc2)(c2ccccc2)C1.Cl (single isomer, unassigned; (-)) [(−) A1-41] | 41.0% |

* * *

- Test System: σ2 (Rattus norvegicus)
- Sequence (Q5U3Y7 1-176): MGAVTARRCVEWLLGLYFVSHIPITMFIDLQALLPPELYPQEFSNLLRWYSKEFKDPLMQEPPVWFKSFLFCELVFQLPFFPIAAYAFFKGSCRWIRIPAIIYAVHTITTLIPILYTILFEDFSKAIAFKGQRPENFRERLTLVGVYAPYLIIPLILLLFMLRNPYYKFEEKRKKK
- Test Name: σ2 receptor binding assay, [3H]DTG (+ 300 nM (+)pentazocine)
- Condition Parameters: 1.0E−06 M, mean; hydrochloride
Consider the following compounds and their measured % of Control Specific Binding, Mean readings.
Measured Metric: % of Control Specific Binding, Mean (%)

| Compound | Result |
| --- | --- |
| CN(C)CC1CCOC1(c1ccccc1)c1ccccc1.Cl (single isomer, unassigned; (+)) [(+) A2-73] | 86.1 |
| CN(C)CC1COC(c2ccccc2)(c2ccccc2)C1.Cl (single isomer, unassigned; (-)) [(−) A1-41] | 40.7 |
| CN(C)CC1CCOC1(c1ccccc1)c1ccccc1.Cl (single isomer, unassigned; (-)) [(−) A2-73] | 113.4 |
| CN(C)CC1COC(c2ccccc2)(c2ccccc2)C1.Cl (single isomer, unassigned; (+)) [(+) A1-41] | 58.4 |
